Target: RPS6KA5 KD1 (human) (UniProt O75582)
Sequence (O75582 whole entry, looked up): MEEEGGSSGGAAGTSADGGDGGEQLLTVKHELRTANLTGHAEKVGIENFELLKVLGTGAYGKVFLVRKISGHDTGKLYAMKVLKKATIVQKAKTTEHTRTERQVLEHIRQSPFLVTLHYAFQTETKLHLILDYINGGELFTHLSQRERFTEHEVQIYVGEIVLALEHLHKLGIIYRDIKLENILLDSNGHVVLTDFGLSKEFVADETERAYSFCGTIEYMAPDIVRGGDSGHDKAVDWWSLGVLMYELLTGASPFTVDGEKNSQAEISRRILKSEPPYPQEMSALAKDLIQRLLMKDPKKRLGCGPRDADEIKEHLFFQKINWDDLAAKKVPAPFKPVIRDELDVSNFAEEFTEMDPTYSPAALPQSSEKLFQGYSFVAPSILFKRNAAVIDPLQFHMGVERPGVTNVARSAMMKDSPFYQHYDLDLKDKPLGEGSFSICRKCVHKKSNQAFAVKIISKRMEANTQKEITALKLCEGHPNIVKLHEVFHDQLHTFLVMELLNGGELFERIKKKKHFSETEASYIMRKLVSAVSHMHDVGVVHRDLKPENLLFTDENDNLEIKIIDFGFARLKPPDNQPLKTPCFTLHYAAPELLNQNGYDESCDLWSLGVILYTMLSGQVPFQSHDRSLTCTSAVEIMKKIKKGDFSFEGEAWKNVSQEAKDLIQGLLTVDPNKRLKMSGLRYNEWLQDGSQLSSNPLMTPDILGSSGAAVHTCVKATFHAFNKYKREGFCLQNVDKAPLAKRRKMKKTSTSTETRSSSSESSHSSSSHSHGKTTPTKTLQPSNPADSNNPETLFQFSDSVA
Experiment: split-luciferase competition binding
Conditions: compound 10.0 µM
measurement-name: inhibition (%)

Examples with answers:
compound-structure: O=C1NC(=O)C(c2ccccc2[N+](=O)[O-])=C1Nc1ccc(O)c(Cl)c1
inhibition, %: 0
//
compound-structure: O=C(c1ccc(Nc2nccc(-c3cc4ccccc4s3)n2)cc1)N1CCC(N2CCCC2)CC1
inhibition, %: 0
//
compound-structure: N#CC(=C(\N)Sc1ccccc1N)/C(C#N)=C(/N)Sc1ccccc1N
inhibition, %: 0
//
compound-structure: N#C/C(=C(/N)Sc1ccc(N)cc1)c1ccccc1C(F)(F)F
inhibition, %: 0
//
compound-structure: COc1cc2nccc(Oc3ccc(NC(=O)Nc4ccc(F)cc4F)c(F)c3)c2cc1OC
inhibition, %: 43

I: NC(=O)c1ccc(-c2nc(-c3ccccn3)c(-c3ccc4c(c3)OCO4)[nH]2)cc1
II: CS(=O)(=O)CCNCc1nc(-c2ccc3ncnc(Nc4ccc(OCc5cccc(F)c5)c(Cl)c4)c3c2)cs1
III: Nc1ccc(-c2cccc3c(=O)cc(N4CCOCC4)oc23)cc1
Order each entry by recorded inhibition, climbing from the minimum. Kindly provide the labels arranged according to the requested ordering.
II, III, I
(II: 0%, III: 2%, I: 8%)

1: Cc1cc(I)ccc1Nc1c(C(=O)NOCC2CC2)cc(F)c(F)c1F
2: O=c1cc(N2CCOCC2)oc2c(-c3ccccc3)cccc12
Hi, I'm comparing 1 with 2 and wondering which one has the bigger number for inhibition. Any idea? Could you answer with the label of the item you picked?
2
(2: 4%, 1: 0%)

* * *

Target: STK32B (human)
Assay: split-luciferase competition binding
Details: compound 10.0 µM
measurement-name: inhibition (%)

Examples with answers:
compound: Cc1ccc(NC(=O)c2cccc(N(C)C)c2)cc1NC(=O)c1ccc(O)cc1
meas-value: 0
//
compound: O=C1NC(=O)c2cc(Nc3ccc(F)cc3)c(Nc3ccc(F)cc3)cc21
meas-value: 19
//
compound: Cc1ccc(-c2nn(C(C)(C)C)c3ncnc(N)c23)cc1
meas-value: 58
//
compound: NC(=O)c1ccc(-c2nc(-c3ccccn3)c(-c3ccc4c(c3)OCCO4)[nH]2)cc1
meas-value: 0
//
compound: O=S(=O)(NCCNC/C=C/c1ccc(Br)cc1)c1cccc2cnccc12
meas-value: 17
//
compound: Brc1c(Br)c(Br)c2[nH]nnc2c1Br
meas-value: 4

1: O=C(c1ccc(Nc2nccc(-c3cc4ccccc4s3)n2)cc1)N1CCC(N2CCCC2)CC1
2: Cn1cnc2c(NCc3ccccc3)nc(NCCO)nc21
3: CS(=O)c1ccc(-c2nc(-c3ccc(F)cc3)c(-c3ccncc3)[nH]2)cc1 (configuration not stated)
4: Cc1cc2nc3c(=O)[nH]c(=O)nc-3n(C)c2cc1C=O
5: Cn1cc(C2=C(c3cn(CCCSC(=N)N)c4ccccc34)C(=O)NC2=O)c2ccccc21
Ranking field: inhibition; order: falling. Kindly provide the labels arranged according to the requested ordering.
5, 3, 4, 1, 2

I: Nc1ccc(-c2cccc3c(=O)cc(N4CCOCC4)oc23)cc1
II: Nc1ncnc2[nH]nc(Nc3ccc(F)cc3)c12
Hi, I'm comparing I with II and wondering which one has the bigger number for inhibition. Any idea? Could you answer with the label of the item you picked?
II
(II: 42%, I: 0%)

A: CCN(CC)CCNC(=O)c1c(C)[nH]c(/C=C2\C(=O)Nc3ccc(F)cc32)c1C
B: Oc1ccc(-c2nc(-c3ccc(F)cc3)c(-c3ccncc3)[nH]2)cc1
Looking only at measured inhibition, which entry is lower, A or B ? Could you answer with the label of the item you picked?
A

* * *

Target: UniProt Q9UQB9
Assay: split-luciferase competition binding
Conditions: compound 10.0 µM
measurement-name: inhibition (%)

compound: CS(=O)c1ccc(-c2nc(-c3ccc(F)cc3)c(-c3ccncc3)[nH]2)cc1 (centres undefined)
target-of-assay: UniProt Q9UQB9
inhibition [%]: 0

compound: Cc1ccc(NC(=O)c2cccc(N(C)C)c2)cc1NC(=O)c1ccc(O)cc1
target-of-assay: UniProt Q9UQB9
inhibition [%]: 8

compound: Cn1cnc2c(NCc3ccccc3)nc(NCCO)nc21
target-of-assay: UniProt Q9UQB9
inhibition [%]: 0

compound: CC(C)(C)n1nc(-c2ccc(Cl)cc2)c2c(N)ncnc21
target-of-assay: UniProt Q9UQB9
inhibition [%]: 6

compound: NC(=O)Nc1sc(-c2ccc(F)cc2)cc1C(N)=O
target-of-assay: UniProt Q9UQB9
inhibition [%]: 31

I: c1ccc(-c2n[nH]cc2-c2ccnc3ccccc23)nc1
II: C=CC(=O)c1ccc2ccccc2c1
III: COc1cc2c(Nc3ccc(NC(=O)c4ccccc4)cc3)ncnc2cc1OCCCN1CCOCC1
IV: CC(C)(C)n1nc(-c2cccc3ccccc23)c2c(N)ncnc21
Ranking field: inhibition; order: falling. Kindly provide the labels arranged according to the requested ordering.
III, IV, I, II
(III: 66%, IV: 17%, I: 6%, II: 0%)

1: CC(C)[C@H](CO)Nc1nc(Nc2cccc(Cl)c2)c2ncn(C(C)C)c2n1
2: O=C(c1ccc(Nc2nccc(-c3cc4ccccc4s3)n2)cc1)N1CCC(N2CCCC2)CC1
3: COc1cc2nccc(Oc3ccc(NC(=O)Nc4ccc(F)cc4F)c(F)c3)c2cc1OC
Order each entry by recorded inhibition, climbing from the minimum. Kindly provide the labels arranged according to the requested ordering.
1, 2, 3
(1: 0%, 2: 15%, 3: 80%)

* * *

Target: UniProt O14965
Sequence (O14965 whole entry, looked up): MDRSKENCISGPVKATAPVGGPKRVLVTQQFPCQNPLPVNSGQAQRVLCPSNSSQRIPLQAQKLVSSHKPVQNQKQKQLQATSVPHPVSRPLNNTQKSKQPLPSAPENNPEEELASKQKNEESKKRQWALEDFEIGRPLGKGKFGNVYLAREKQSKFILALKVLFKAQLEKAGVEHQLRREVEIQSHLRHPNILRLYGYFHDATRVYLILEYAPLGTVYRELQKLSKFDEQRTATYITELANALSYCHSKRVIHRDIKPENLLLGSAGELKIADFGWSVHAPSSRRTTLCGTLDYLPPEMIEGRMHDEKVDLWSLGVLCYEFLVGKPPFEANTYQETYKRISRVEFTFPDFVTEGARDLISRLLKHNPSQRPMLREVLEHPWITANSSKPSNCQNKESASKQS
Assay: split-luciferase competition binding
Settings: compound 10.0 µM
measurement-name: inhibition (%)

I: C=CC(=O)c1ccc2ccccc2c1
II: COc1cc2c(Nc3ccc(NC(=O)c4ccccc4)cc3)ncnc2cc1OCCCN1CCOCC1
Hi, I'm comparing I with II and wondering which one has the bigger number for inhibition. Any idea? Could you answer with the label of the item you picked?
II
(II: 13%, I: 0%)

1: CN1CCC(Nc2ncc3ncnc(Nc4ccc(F)c(Cl)c4)c3n2)CC1
2: Cc1cc2nc3c(=O)[nH]c(=O)nc-3n(C)c2cc1C=O
Hi, I'm comparing 1 with 2 and wondering which one has the bigger number for inhibition. Any idea? Could you answer with the label of the item you picked?
2

* * *

Target: RPS6KA1 KD1 (human)
Assay: split-luciferase competition binding
Conditions: compound 10.0 µM
measurement-name: inhibition (%)

compound-structure: O=C1NC(=O)c2c1c1c3ccccc3n3c1c1c2c2ccccc2n1C1CCC3O1
inhibition / %: 81
--
compound-structure: COc1cc2ncnc(Nc3ccc(Cl)cc3F)c2cc1OC
inhibition / %: 0
--
compound-structure: Cc1ccccc1C(=O)c1ccc(Nc2ccc(Br)cc2N)cc1Cl
inhibition / %: 0
--
compound-structure: C=CC(=O)c1ccc2ccccc2c1
inhibition / %: 0
--
compound-structure: Cn1cnc2c(NCc3ccccc3)nc(NCCO)nc21
inhibition / %: 0

P: Cc1cc(F)c(Nc2ncnc3cc(OCc4ccccc4)ccc23)cc1O
Q: Cc1cc(I)ccc1Nc1c(C(=O)NOCC2CC2)cc(F)c(F)c1F
R: Cc1ccc(-c2nn(C(C)(C)C)c3ncnc(N)c23)cc1
Ranking field: inhibition; order: falling. Kindly provide the labels arranged according to the requested ordering.
R, Q, P
(R: 27%, Q: 6%, P: 0%)

* * *

Biological target: AURKC (human) (UniProt Q9UQB9)
Sequence (Q9UQB9 whole entry, looked up): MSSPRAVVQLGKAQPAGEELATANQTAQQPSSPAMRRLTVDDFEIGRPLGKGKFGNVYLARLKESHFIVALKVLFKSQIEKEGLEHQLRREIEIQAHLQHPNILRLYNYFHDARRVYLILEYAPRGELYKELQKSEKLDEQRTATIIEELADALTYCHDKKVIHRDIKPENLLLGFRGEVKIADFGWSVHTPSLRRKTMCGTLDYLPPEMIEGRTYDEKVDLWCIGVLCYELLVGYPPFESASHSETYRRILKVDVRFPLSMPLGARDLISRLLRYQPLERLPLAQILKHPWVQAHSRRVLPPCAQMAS
Experiment: split-luciferase competition binding
Conditions: compound 10.0 µM
measurement-name: inhibition (%)

compound: COc1nccc(-c2c(-c3ccc(F)cc3)ncn2[C@H]2CC[C@H](O)CC2)n1
inhibition / %: 0
//
compound: COc1cc2ncn(-c3cc(OCc4ccccc4C(F)(F)F)c(C(N)=O)s3)c2cc1OC
inhibition / %: 28
//
compound: C/C(O)=C(\C#N)C(=O)Nc1cc(Br)ccc1Br
inhibition / %: 0
//
compound: CCN(CC)CCNC(=O)c1c(C)[nH]c(/C=C2\C(=O)Nc3ccc(F)cc32)c1C
inhibition / %: 30
//
compound: CC(C)[C@H](CO)Nc1nc(Nc2cc(N)cc(Cl)c2)c2ncn(C(C)C)c2n1
inhibition / %: 0
//
compound: O=C1NC(=O)C(c2ccccc2[N+](=O)[O-])=C1Nc1ccc(O)c(Cl)c1
inhibition / %: 23

1: COc1cc2ncnc(Nc3ccc(Cl)cc3F)c2cc1OC
2: Cc1[nH]c(/C=C2\C(=O)Nc3ccc(S(=O)(=O)Cc4c(Cl)cccc4Cl)cc32)c(C)c1C(=O)N1CCC[C@@H]1CN1CCCC1
Looking only at measured inhibition, which entry is lower, 1 or 2 ? Could you answer with the label of the item you picked?
1
(1: 18%, 2: 39%)

a: O=C1c2ccccc2-c2n[nH]c3cccc1c23
b: O=S(=O)(c1cccc2c(O)nccc12)N1CCCNCC1
Looking only at measured inhibition, which entry is lower, a or b ? Could you answer with the label of the item you picked?
a
(a: 0%, b: 5%)

A: COc1ccc(Cl)cc1NC(=O)Nc1cc(C)nc2ccccc12
B: O=C(NC(NC(=S)Nc1ccc(F)c([N+](=O)[O-])c1)C(Cl)(Cl)Cl)C(c1ccccc1)c1ccccc1 (stereo unspecified)
Hi, I'm comparing A with B and wondering which one has the bigger number for inhibition. Any idea? Could you answer with the label of the item you picked?
A
(A: 16%, B: 3%)

I: Cc1cc2nc3c(=O)[nH]c(=O)nc-3n(C)c2cc1C=O
II: CC(C)[C@H](CO)Nc1nc(Nc2ccc(C(=O)O)c(Cl)c2)c2ncn(C(C)C)c2n1
III: CN1CC[C@H](c2c(O)cc(O)c3c(=O)cc(-c4ccccc4Cl)oc23)[C@H](O)C1
IV: CC[C@@H](CO)Nc1nc(NCc2ccccc2)c2ncn(C(C)C)c2n1
V: NC(=O)c1ccc(-c2nc(-c3ccccn3)c(-c3ccc4c(c3)OCCO4)[nH]2)cc1
Order each entry by recorded inhibition, climbing from the minimum. Kindly provide the labels arranged according to the requested ordering.
IV, V, II, I, III

1: O=S(=O)(c1cccc2cnccc12)N1CCCNCC1
2: Cc1cc(F)c(Nc2ncnc3cc(OCc4ccccc4)ccc23)cc1O
Hi, I'm comparing 1 with 2 and wondering which one has the bigger number for inhibition. Any idea? Could you answer with the label of the item you picked?
1
(1: 6%, 2: 0%)

Just for reference, the kinase profiling compilation of Christmann-Franck et al. (2016) is where these values come from.
